Target: T1, RVS167 SH3 domain (Saccharomyces cerevisiae)
T1 chain: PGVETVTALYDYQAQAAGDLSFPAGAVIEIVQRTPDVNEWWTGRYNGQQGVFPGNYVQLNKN
Experiment: SPR
Details: modification not given
READOUT_LABEL: pKd
Give bare numbers, as −log10 of the molar value.

binder="NQPDLPPRKIMIP [YBR239C peptide …]" result=4.41

Batch: pKd for all items listed.
1. PQQNRPLPQLPNRN [LAS17 peptide …]
2. RAVPILPPRNNVEP [YBR108W peptide …]

(A)
[4.49, 4.41]
